Overview of reported pKi across a group of molecules:
# tested_system: human GlyT1c transporter (Homo sapiens, UniProt P48067)
# Construct: expressed in transfected cells; host or cells: CHO cells (recombinant; line hGlyT1c_5_CHO is named for the uptake assay)
# Sequence (P48067 whole entry): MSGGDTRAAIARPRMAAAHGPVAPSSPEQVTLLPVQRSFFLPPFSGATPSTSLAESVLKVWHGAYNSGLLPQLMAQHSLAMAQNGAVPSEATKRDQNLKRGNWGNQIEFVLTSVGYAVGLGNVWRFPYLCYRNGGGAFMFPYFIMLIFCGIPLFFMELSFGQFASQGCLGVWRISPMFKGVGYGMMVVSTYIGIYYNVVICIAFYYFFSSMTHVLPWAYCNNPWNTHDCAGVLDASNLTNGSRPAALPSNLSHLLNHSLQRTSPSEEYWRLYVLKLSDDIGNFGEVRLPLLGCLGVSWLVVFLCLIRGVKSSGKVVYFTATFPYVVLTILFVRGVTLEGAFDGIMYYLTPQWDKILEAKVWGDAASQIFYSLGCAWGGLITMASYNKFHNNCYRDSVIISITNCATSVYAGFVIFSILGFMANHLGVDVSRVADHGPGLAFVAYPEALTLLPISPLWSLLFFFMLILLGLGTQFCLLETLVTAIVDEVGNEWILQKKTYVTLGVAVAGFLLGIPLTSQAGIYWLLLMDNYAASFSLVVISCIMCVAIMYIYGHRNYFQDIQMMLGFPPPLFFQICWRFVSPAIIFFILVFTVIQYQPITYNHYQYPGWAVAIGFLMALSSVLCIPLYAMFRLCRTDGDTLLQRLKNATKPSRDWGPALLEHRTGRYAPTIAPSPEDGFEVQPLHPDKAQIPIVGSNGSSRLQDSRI
# protocol_details: Radioligand binding assay using recombinant CHO cell membranes expressing human GlyT1
# run_parameters: radioligand binding to human GlyT1c transporter-expressing membranes
pKi: −log10 of the molar value.

See these solved cases before continuing.
Cn1cnc(S(=O)(=O)N2C[C@@H](Nc3cc(C(F)(F)F)cnn3)[C@H](c3ccc(F)cc3)C2)c1 (relative stereo)
≥ 6.00
Cn1cnc(S(=O)(=O)N2C[C@@H](Nc3cc(Cl)ncn3)[C@H](c3ncccc3F)C2)c1 (relative stereo)
≥ 5.00
Cn1cnc(S(=O)(=O)N2C[C@@H](COc3cc(C(F)(F)F)ccn3)[C@H](c3ccc(F)cc3)C2)c1 (relative stereo)
≥ 6.00
Cn1cnc(S(=O)(=O)N2C[C@@H](Nc3cccc(F)c3)[C@H](c3ccccc3)C2)c1 (relative stereo)
≥ 6.00
Cn1cnc(S(=O)(=O)N2C[C@@H](Nc3ccc(Cl)c(C#N)c3)[C@H](c3ccccc3)C2)c1 (relative stereo)
≥ 6.00

Now consider a different molecule.
Prompt line: Please look up its pKi: Cn1cnc(S(=O)(=O)N2C[C@@H](COc3cccc(Cl)c3)[C@H](c3ccc(F)cc3)C2)c1 (relative stereo)
Response line: ≥ 6.00

----------
# tested_system: human GlyT1c transporter (Homo sapiens)
# Construct: expressed in transfected cells; host or cells: CHO cells (recombinant; line hGlyT1c_5_CHO is named for the uptake assay)
# protocol_details: Radioligand binding assay using recombinant CHO cell membranes expressing human GlyT1
# run_parameters: radioligand binding to human GlyT1c transporter-expressing membranes
pKi: −log10 of the molar value.
measurement_type: pKi

Cn1cnc(S(=O)(=O)N2C[C@H](NCc3nc4ccccc4s3)[C@@H](c3ccccc3)C2)c1
≥ 6.00

Prompt line: Return reported pKi; argument: Cn1cnc(S(=O)(=O)N2C[C@@H](Nc3cccc(C(F)(F)F)c3)[C@H](C3CCCCO3)C2)c1 (relative stereo)
Response line: ≥ 8.00

Prompt line: Also need "Cn1cnc(S(=O)(=O)N2C[C@H](Nc3nccc(C(F)(F)F)c3F)[C@@H](c3ccc(F)cc3)C2)c1" , thanks.
Response line: ≥ 7.00

Prompt line: Same for "CCCCCCO[C@H]1CN(S(=O)(=O)c2cn(C)cn2)C[C@@H]1c1ccc(F)cc1"
Response line: ≥ 8.00

----------
Listing of entries alongside the reported pKi.
# tested_system: human GlyT1c transporter (Homo sapiens)
# Construct: expressed in transfected cells; host or cells: CHO cells (recombinant; line hGlyT1c_5_CHO is named for the uptake assay)
# protocol_details: Radioligand binding assay using recombinant CHO cell membranes expressing human GlyT1
# run_parameters: radioligand binding to human GlyT1c transporter-expressing membranes
# Description: 2. Radioligand binding assays using recombinant CHO cell membranes expressing human GlyT1: […]
pKi: −log10 of the molar value.

Consider the following illustrative entries.
Cn1cnc(S(=O)(=O)N2C[C@@H](NC(=O)c3ccc(C#N)cc3)[C@H](c3ccccc3)C2)c1 (relative stereo) [Example 34]
≥ 5.00
O=C(N[C@@H]1CN(S(=O)(=O)c2ccc(C(F)(F)F)cc2)C[C@H]1c1ccccc1)c1cccc(C(F)(F)F)c1Cl (relative stereo) [Example 143]
≥ 5.00
Cn1cnc(S(=O)(=O)N2C[C@@H](Nc3cccc(C(F)(F)F)c3)[C@H](c3ccccc3Cl)C2)c1 (relative stereo) [Example 255]
≥ 7.00
Cn1cnc(S(=O)(=O)N2C[C@@H](Nc3cc(F)cc(C(F)(F)F)c3)[C@H](c3ccccc3)C2)c1 (relative stereo) [Example 223]
≥ 7.00
Cn1cnc(S(=O)(=O)N2C[C@@H](CNc3ccc(C(F)(F)F)c(Cl)c3)[C@H](c3ccc(F)cc3)C2)c1 (relative stereo) [Example 311]
≥ 6.00

Prompt line: // returns reported pKi for input Cn1cnc(S(=O)(=O)N2C[C@@H](Nc3ccc(C(F)(F)F)cc3)[C@H](c3ccccc3)C2)c1 (relative stereo) [Example 68]
Response line: ≥ 6.00

Prompt line: Try Cc1cccc(C(=O)[C@@H]2CN(S(=O)(=O)c3cn(C)cn3)C[C@H]2c2ccc(F)cc2)c1 (relative stereo) [Example 300] next.
Response line: ≥ 6.00

Prompt line: Consider next the compound O=C(N[C@@H]1CN(S(=O)(=O)CC2CC2)C[C@H]1c1ccccc1)c1cc(Cl)cc(Cl)c1 (relative stereo) [Example 129] in the same way.
Response line: < 5.00

Prompt line: Entry to check: Cn1cnc(S(=O)(=O)N2C[C@@H](Nc3cccc(Cl)c3)[C@H](OCC3CC3)C2)c1 (relative stereo) [Example 530]
Response line: ≥ 6.00

Prompt line: Then what about the compound N#Cc1cccc(N[C@@H]2CN(S(=O)(=O)CC3CC3)C[C@H]2c2ccccc2)c1 (relative stereo) [Example 133] ?
Response line: ≥ 5.00

Prompt line: Then this compound: Cn1cnc(S(=O)(=O)N2C[C@H](NCc3sc(Cl)nc3Cl)[C@@H](c3ccccc3)C2)c1 [Example 435]
Response line: ≥ 7.00

Prompt line: What about Cn1cnc(S(=O)(=O)N2C[C@@H](NCc3ccc(C(F)(F)F)cc3)[C@H](c3ccc(F)cc3)C2)c1 (relative stereo) [Example 267] ?
Response line: ≥ 8.00

Prompt line: Moving on to the next compound: Cn1cnc(S(=O)(=O)N2C[C@H](C(=O)NCc3ccc(C(F)(F)F)cc3Cl)[C@@H](c3ccc(F)cc3)C2)c1 [Example 663]
Response line: ≥ 7.00
